# Measured On: EGFR (human) (UniProt P00533)
# Settings: a431
Consider the following molecules; for each one, report its IC50.
Could you give me the number in nM? Just the number is fine.

Prompt: Any idea what its IC50 is? The molecule is C=CC(=O)N1CC[C@H](C(=O)Nc2ccc3ncnc(Nc4ccc(OCc5ccccn5)c(Cl)c4)c3c2)C1
Completion: 350

Prompt: Same thing, different molecule: C=CC(=O)N1CCC(C(=O)Nc2ccc3ncnc(Nc4ccc(OCc5ccccn5)c(Cl)c4)c3c2)CC1
Completion: 513

Prompt: Same thing, different molecule: C=CC(=O)N1CCC[C@H]1C(=O)Nc1ccc2ncnc(Nc3ccc(OCc4ccccn4)c(Cl)c3)c2c1
Completion: 32

Prompt: Same thing, different molecule: C=CC(=O)N1CCC[C@H](C(=O)Nc2ccc3ncnc(Nc4ccc(OCc5ccccn5)c(Cl)c4)c3c2)C1
Completion: 286

###

Consider the following compounds; for each one, report its IC50.
# Measured On: EGFR (human) (UniProt P00533)
# Settings: f/l herc cells
Could you give me the number in nM? Just the number is fine.

Prompt: Any idea what its IC50 is? The compound is CCC(=O)CN(C)C/C=C/C(=O)Nc1cc2c(N[C@H](C)c3ccccc3)ncnc2cc1OC
Completion: 9

Prompt: Same thing, different compound: CCOC(=O)CN1CCN(C/C=C/C(=O)Nc2cc3c(Nc4ccc(F)c(Cl)c4)ncnc3cc2OCCC2CC2)CC1
Completion: 17

###

Hi! I'm sharing some IC50 results obtained with EGFR (human).
Could you give me the number in nM? Just the number is fine.

Prompt: Any idea what its IC50 is? The molecule is Nc1nc(Nc2cccc(Cl)c2)c2c(n1)[nH]c1ccccc12
Completion: 6

Prompt: Same thing, different molecule: Nc1nc(Nc2ccccc2)c2c(n1)[nH]c1ccccc12
Completion: 147

###

Hi! I'm sharing some pIC50 results obtained with EGFR (UniProt P00533).
Sequence (P00533 whole entry, looked up): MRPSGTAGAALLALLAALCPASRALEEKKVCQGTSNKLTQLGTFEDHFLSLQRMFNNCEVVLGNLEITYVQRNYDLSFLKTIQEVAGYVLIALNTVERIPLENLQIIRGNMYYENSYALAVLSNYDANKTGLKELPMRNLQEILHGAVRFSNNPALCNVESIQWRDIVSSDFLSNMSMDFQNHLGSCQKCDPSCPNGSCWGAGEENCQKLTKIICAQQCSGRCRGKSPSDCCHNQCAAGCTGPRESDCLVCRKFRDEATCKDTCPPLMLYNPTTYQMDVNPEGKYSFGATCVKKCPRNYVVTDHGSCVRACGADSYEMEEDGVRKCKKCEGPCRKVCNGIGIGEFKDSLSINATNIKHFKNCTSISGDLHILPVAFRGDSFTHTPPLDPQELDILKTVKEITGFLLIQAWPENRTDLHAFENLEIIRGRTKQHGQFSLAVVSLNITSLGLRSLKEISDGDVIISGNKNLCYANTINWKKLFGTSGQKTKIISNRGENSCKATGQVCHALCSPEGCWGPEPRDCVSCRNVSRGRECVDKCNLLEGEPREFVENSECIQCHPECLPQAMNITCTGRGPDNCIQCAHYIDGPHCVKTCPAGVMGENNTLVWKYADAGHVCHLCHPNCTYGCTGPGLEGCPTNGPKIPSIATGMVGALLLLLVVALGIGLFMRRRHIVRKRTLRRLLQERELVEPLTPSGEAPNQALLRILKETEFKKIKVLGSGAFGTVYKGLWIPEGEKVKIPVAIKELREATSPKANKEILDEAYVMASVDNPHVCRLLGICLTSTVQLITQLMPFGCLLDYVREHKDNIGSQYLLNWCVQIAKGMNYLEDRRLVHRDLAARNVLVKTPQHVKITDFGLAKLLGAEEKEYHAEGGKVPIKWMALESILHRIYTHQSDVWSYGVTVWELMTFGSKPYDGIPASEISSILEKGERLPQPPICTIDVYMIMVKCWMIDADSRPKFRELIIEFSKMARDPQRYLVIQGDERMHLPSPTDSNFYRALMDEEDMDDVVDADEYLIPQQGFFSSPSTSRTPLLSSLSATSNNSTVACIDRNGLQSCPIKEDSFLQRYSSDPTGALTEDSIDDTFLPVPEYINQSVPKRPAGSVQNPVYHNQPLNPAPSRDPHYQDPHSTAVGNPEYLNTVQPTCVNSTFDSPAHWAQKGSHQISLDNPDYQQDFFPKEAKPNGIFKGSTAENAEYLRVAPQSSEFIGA
pIC50 is a log-scale quantity: -log10 of the concentration expressed in molar.

Prompt: Notebook entry, EGFR (UniProt P00533) assay: pIC50 of CN(C)c1cc2ncnc(Nc3cccc(Br)c3)c2cn1 = ?
Completion: 7.85

Prompt: Same thing, different molecule: CN(C)CCCCNc1cc2ncnc(Nc3cccc(Br)c3)c2cn1
Completion: 7.42

Prompt: Same thing, different molecule: CNc1cc2ncnc(Nc3cccc(Br)c3)c2cn1
Completion: 7.80

Prompt: Same thing, different molecule: Nc1cc2ncnc(Nc3cccc(Br)c3)c2cn1
Completion: 6.96

###

Hi! I'm sharing some pIC50 results obtained with EGFR (UniProt P00533).
pIC50 is a log-scale quantity: -log10 of the concentration expressed in molar.

Prompt: Any idea what its pIC50 is? The compound is COc1ccc(Nc2ncc3c(n2)N(c2ccccc2)C(=O)N(c2ccc(OC)cc2)C3)cc1
Completion: 6.74

Prompt: Same thing, different compound: COc1ccc(N2Cc3cnc(Nc4ccc(O)cc4)nc3N(c3ccccc3)C2=O)cc1
Completion: 6.89

###

# Measured On: UniProt:P00533
Readout Name: IC50 (nM)
Could you give me the number in nM? Just the number is fine.

Prompt: Any idea what its IC50 is? The compound is Ic1cccc(Nc2ncnc3ccccc23)c1
Completion: 80

Prompt: Same thing, different compound: O=[N+]([O-])c1ccc2ncnc(Nc3cccc(Br)c3)c2c1
Completion: 900

Prompt: Same thing, different compound: FC(F)(F)c1cccc(Nc2ncnc3ccccc23)c1
Completion: 577
